# self-cleavage annotations
B1: CPEB3 Ribozyme (parent)
chain: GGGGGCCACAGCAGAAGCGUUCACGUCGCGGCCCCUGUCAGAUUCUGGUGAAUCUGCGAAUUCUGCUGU

variants of: B1; assay: self-cleavage, relative activity (ratio to wild type); higher = more cleavage; co-transcriptional

Below are worked cases with known answers.
residueChange	measure	val
C7A U38C	self-cleavage	0.221
G1A C63G	self-cleavage	0.0342
C24A U62A	self-cleavage	0.364
A51C U61A	self-cleavage	0.813
C39A U61G	self-cleavage	0.402
G31U U38C	self-cleavage	0.505

response.value for C39G U64G (field: self-cleavage) = 0.642

// G14C C35U : self-cleavage value = 0.464

Entry U20A G37A ; self-cleavage = 0.13

What the record says about C33U U61C : self-cleavage is 0.913

Value of measured self-cleavage for the entry U36G G37A : 0.198

Consider A23U U53G . Its measured self-cleavage is 0.959

Record C18A C63G , field self-cleavage: 0.147
